Taken from PubChem BioAssay AID1963831.

tested on: 889142-216-R-J1-PDC complex spheroid viability; assay: Anticancer human tumor 889142-216-R-J1-PDC patient-derived bladder carcinoma cell line growth inhibition [POLQ]; conditions: second compound 0.316 µM; first compound 0.316 µM; stronger effect = lower value;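 also: spheroids exposed to compounds for seven days; 100% = DMSO vehicle control viability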
Entries annotated with measured viability, T/C
PROPERTY_MEASURED: viability, T/C (%)

>>> numeric_result("CNCc1ccc(-c2[nH]c3cc(F)cc4c3c2CCNC4=O)cc1 + COC1C(OC(N)=O)C(O)C(Oc2ccc3c(O)c(NC(=O)c4ccc(O)c(CC=C(C)C)c4)c(=O)oc3c2C)OC1(C)C")
90.6
>>> numeric_result("O=c1[nH]cc(F)c(=O)[nH]1 + Nc1ccc(C#CCN(C(=O)Cc2ncc(C(F)(F)F)cc2C(F)(F)F)c2ccc(F)cc2)nn1")
68
>>> numeric_result("COc1ccc([C@@H](O)c2cc(-c3ncnc4cc(N5CCOCC5)ccc34)c(F)cc2Cl)nn1 + Cc1cccc(N(C)C(=O)C2C(O)CCN2c2nc(C)cc(C(F)(F)F)c2C#N)c1")
90.3
